Record form. Attribute: cell viability. Fill in for each entry.
tested on: SEM cells; experiment: cell viability relative to DMSO control; higher = less cytotoxic; settings: RPMI 5 mM glucose + 10% FBS; 48 h; 0.569 µM
Numbers only, in %.

- N[C@@H](CC(=O)N1CCn2c(nnc2C(F)(F)F)C1)Cc1cc(F)c(F)cc1F: 106
- CN[S+](=O)([O-])CCc1ccc2[nH]cc(C3CCN(C)CC3)c2c1: 92.5
- NC(=O)c1cccc(N)c1: 82.9
- CC(C)(C)NC(=O)[C@@H]1CN(Cc2cccnc2)CCN1C[C@@H](O)C[C@@H](Cc1ccccc1)C(=O)N[C@H]1c2ccccc2C[C@H]1O.O=S(=O)(O)O: 112

// next item, cell viability requested
Which cell viability is listed for CC(NCc1ccc2c(c1)[nH]/c(=N\C(=O)c1ccc(-c3cn[nH]c3)s1)n2CC(C)(C)O)C(C)(C)C (stereo not given) ?
31.3

====

test system: NOMO1; assay: cell viability relative to DMSO control; higher = less cytotoxic; conditions: HPLM + 10% dialyzed FBS; 48 h; 0.00702 µM
Record form. Attribute: cell viability. Fill in for each entry.
One number for each entry, in %.

* O=C1NC(=O)/C(=C/c2cccc(C(F)(F)F)c2)S1 | 96.8

Fill in cell viability for each of the 6 molecules listed.
1. CCNc1cc(NC2CCC(O)CC2)nc(Nc2ccc3c(ccn3Cc3ccccc3)c2)n1 (stereo not drawn)
2. CO[C@@H]1C(N(C)C(=O)c2ccccc2)C[C@H]2O[C@]1(C)n1c3ccccc3c3c4c(c5c6ccccc6n2c5c31)C(=O)NC4=O (stereo partly drawn)
3. COc1ccc2c(c1OC)CN1CCc3cc4c(cc3C1C2)OCO4 (stereo not drawn)
4. CCNC(=O)[C@H]1O[C@@H](n2cnc3c(N)nc(NCCc4ccc(CCC(=O)O)cc4)nc32)[C@H](O)[C@@H]1O
5. CC(C)(C)NC(=O)[C@@H]1CN(Cc2cccnc2)CCN1C[C@@H](O)C[C@@H](Cc1ccccc1)C(=O)N[C@H]1c2ccccc2C[C@H]1O.O=S(=O)(O)O
6. CN(C)CCN(Cc1ccc(Cl)cc1)c1ccccn1.Cl

1: 126; 2: 90.2; 3: 98.4; 4: 98.9; 5: 111; 6: 89.4

Which cell viability is listed for NCC(=O)Nc1ccc(-n2nc(C(F)(F)F)cc2-c2ccc3c(ccc4ccccc43)c2)cc1 ?
123

====

Record form. Attribute: cell viability. Fill in for each entry.
system: NOMO1; experiment: cell viability relative to DMSO control; higher = less cytotoxic; details: HPLM + 10% dialyzed FBS; 48 h; 0.19 µM
Write down the value, and be sure its unit follows.

* N[C@@H](CC(=O)N1CCn2c(nnc2C(F)(F)F)C1)Cc1cc(F)c(F)cc1F | 106%
* NC(=O)Nc1cc(-c2ccc(CN3CCOCC3)cc2)sc1C(N)=O | 68.3%
* C[N+](C)([O-])CCNc1ccc(NCC[N+](C)(C)[O-])c2c1C(=O)c1c(O)ccc(O)c1C2=O | 97.2%
* C=CCn1c(=O)c2cnc(Nc3ccc(N4CCN(C)CC4)cc3)nc2n1-c1cccc(C(C)(C)O)n1 | 96.2%
* COc1cc([C@@H]2c3cc4c(cc3[C@@H](O[C@@H]3O[C@@H]5CO[C@@H](c6cccs6)O[C@H]5[C@H](O)[C@H]3O)[C@H]3COC(=O)[C@H]23)OCO4)cc(OC)c1O | 89.6%

// next item, cell viability requested
Which cell viability is listed for CC[C@@]1(O)C[C@H](O[C@H]2C[C@H](N(C)C)[C@H](O[C@H]3C[C@H](O)[C@H](O[C@H]4CCC(=O)[C@H](C)O4)[C@H](C)O3)[C@H](C)O2)c2c(cc3c(c2O)C(=O)c2c(O)cccc2C3=O)[C@H]1C(=O)OC ?
101%
